Target: T1, His-human LIGHT (human)
T1 construct: also called His-huLIGHT; free LIGHT
T1 chain: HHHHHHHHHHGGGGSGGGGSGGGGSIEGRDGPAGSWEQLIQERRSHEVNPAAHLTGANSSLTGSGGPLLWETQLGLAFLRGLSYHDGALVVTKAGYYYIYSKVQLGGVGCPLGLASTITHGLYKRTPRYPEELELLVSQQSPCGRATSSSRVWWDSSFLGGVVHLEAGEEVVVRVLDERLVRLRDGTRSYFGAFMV
Assay: ELISA, His-huLIGHT coated
Labelling field: enter 1 if recorded EC50 is less than 0.08 µg/mL. Enter -1 if it equals or exceeds that cut-off.

# count of solved cases: 3
- binder: "hum_LT-m37-11 (antibody, human IgG4, V domains shown, humanized from LT-m37) VH: QVQLVQSGAEVKKPGASVKVSCKASGYSFTGYFINWVRQAPGQGLEWIGRIYPYNVNTFYNQNFKGRATMTADKSTSTAYMELSSLRSEDTAVYYCGRGTHYYGSSGAMDYWGQGTLVTVSS VL: EIVLTQSPATLSVSPGERATLSCKASQNVGTAVAWYQQKPGQSPRLLIYSASNRYTGIPARFSGSGSGTEFTLTISSLQSEDFAVYYCQQYSSYPYTFGGGTKVEIK"
  assigned-class: -1
- binder: "hum_LT-m37-4 (antibody, human IgG4, V domains shown, humanized from LT-m37) VH: QVQLVQSGAEVKKPGASVKVSCKASGYSFTGYFINWVRQAPGQGLEWIGRIYPYNVNTFYNQNFKGRVTMTADKSTSTAYMELSSLRSEDTAVYYCGRGTHYYGSSGAMDYWGQGTLVTVSS VL: EIVLTQSPATLSVSPGERATLSCKASQNVGTAVAWYQQKPGQSPRLLIYSASNRYTGIPARFSGSGSGTEFTLTISSLQSEDFAVYFCQQYSSYPYTFGGGTKVEIK"
  assigned-class: -1
- binder: "hum_LT-m37-6 (antibody, human IgG4, V domains shown, humanized from LT-m37) VH: QVQLVQSGAEVKKPGASVKVSCKASGYSFTGYFINWVRQAPGQGLEWIGRIYPYNVNTFYNQNFKGRATLTADKSTSTAYMELSSLRSEDTAVYYCGRGTHYYGSSGAMDYWGQGTLVTVSS VL: EIVMTQSPATLSVSPGERATLSCKASQNVGTAVAWYQQKPGQSPRLLIYSASNRYTGIPARFSGSGSGTEFTLTISSLQSEDFAVYFCQQYSSYPYTFGGGTKVEIK"
  assigned-class: -1

Does the reported EC50 of the following binder sit strictly below 0.08 µg/mL? hum_LT-m37-9 (antibody, human IgG4, V domains shown, humanized from LT-m37) VH: QVQLVQSGAEVKKPGASVKVSCKASGYSFTGYFINWVRQAPGQSLEWIGRIYPYNVNTFYNQNFKGRATLTADKSTSTAYMELSSLRSEDTAVYYCGRGTHYYGSSGAMDYWGQGTLVTVSS VL: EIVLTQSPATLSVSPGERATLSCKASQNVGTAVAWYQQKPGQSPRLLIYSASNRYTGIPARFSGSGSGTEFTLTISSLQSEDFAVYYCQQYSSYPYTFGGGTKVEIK
-1

Does the reported EC50 of the following binder sit strictly below 0.08 µg/mL? hum_LT-m37-10 (antibody, human IgG4, V domains shown, humanized from LT-m37) VH: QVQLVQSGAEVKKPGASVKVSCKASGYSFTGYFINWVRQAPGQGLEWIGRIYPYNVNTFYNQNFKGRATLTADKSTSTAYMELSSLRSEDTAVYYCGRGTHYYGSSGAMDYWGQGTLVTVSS VL: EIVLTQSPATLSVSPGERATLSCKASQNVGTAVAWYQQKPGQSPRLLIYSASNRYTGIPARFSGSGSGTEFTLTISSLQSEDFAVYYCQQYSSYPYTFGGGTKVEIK
-1

Does the reported EC50 of the following binder sit strictly below 0.08 µg/mL? hum_LT-m37-1 (antibody, human IgG4, V domains shown, humanized from LT-m37) VH: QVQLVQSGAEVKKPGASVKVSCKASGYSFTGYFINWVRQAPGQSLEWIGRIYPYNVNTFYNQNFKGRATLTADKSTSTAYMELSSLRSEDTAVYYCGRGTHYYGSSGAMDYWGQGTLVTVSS VL: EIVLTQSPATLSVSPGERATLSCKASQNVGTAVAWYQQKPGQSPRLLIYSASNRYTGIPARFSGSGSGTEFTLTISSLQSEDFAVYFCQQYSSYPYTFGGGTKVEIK
1
